Ref: PubChem BioAssay

Measurement notes: reversal of MRP1-mediated doxorubicin resistance, pilot screen, H69AR cells, doxorubicin co-treatment (AID 601)
Measurement setup: H69AR cells, CellTiter-Glo, 72 h; compound alone cytotoxicity; at 10 µM
Please respond with reported viability for every item in the list.
All answers are understood in %, so give the number only.

Input CCOC(=O)c1sc(N)c(C(=O)OCC)c1COC(=O)C1CC(=O)N(Cc2ccco2)C1 (stereo not given) . Output viability: 72.4

# viability of O=C(CSc1ccc(Cl)cc1)OCc1nnc(-c2ccccc2)o1 = 109

Value of measured viability for the entry O=C(Nc1cc(Cl)ccc1Cl)c1noc2c1CCCC2 : 83.5

Reported viability of CCOc1ccc(C2/C(=C(/O)c3ccc(OC)cc3)C(=O)C(=O)N2c2cc(C)on2)cc1OC (stereo not given) : 89.4

The recorded viability for C=CCn1c(SCC(=O)c2cc(C)n(C(C)COC)c2C)nc2sc(C)c(C)c2c1=O (stereo not given) is 82.8

###

Measurement notes: reversal of MRP1-mediated doxorubicin resistance, pilot screen, H69AR cells, doxorubicin co-treatment (AID 601)
Measurement setup: H69AR cells + 2 uM doxorubicin, CellTiter-Glo, 72 h; at 10 µM; stronger effect = higher value
Readout: differential viability (reversal) (%)
Write down the numeric answer in % and omit the unit.

Reported differential viability (reversal) for CCCn1c(SCC(=O)N2CCN(c3ccccc3)CC2)nc2ccccc2c1=O was 0.045

differential viability (reversal) measured on CCCN1CCC(NC(=O)Nc2ccc(OC)c(OC)c2)CC1 = 4.61

// differential viability (reversal) value for CC1=CCC2C(=O)N(c3nc(C)cc(C)n3)C(=O)C2C1 (stereo unspecified) : -3.95

For CCOC(=O)C1=C(O)C(=O)N(c2ccc(S(N)(=O)=O)cc2)C1c1ccccc1 (stereo unspecified) the compound record lists differential viability (reversal) as 1.46

The value of differential viability (reversal) measured for the compound CCC(=O)Nc1ccc(NC(=O)c2cccc(OC)c2)nc1 turned out to be 7.67

Kindly note the recorded differential viability (reversal) for O=C(NCc1ccco1)c1cc2n(n1)C(C(F)(F)F)CC(c1ccc(F)cc1)N2 (stereo unspecified) , which is 3.92

Form field differential viability (reversal), entry CCc1cccc(NS(=O)(=O)c2c(C)n[nH]c2C)c1 : 13.2

Quick note, differential viability (reversal) for COc1ccccc1OC(=O)c1ccc2nsnc2c1 landed at 11.6

What the record says about CC(C)(C)OC(=O)N1CC(O)CC1C(=O)OCC(=O)c1ccc(Cl)cc1 (stereo unspecified) : differential viability (reversal) is -6.24

In plain terms, COc1ccc(CCNC(=O)C2=COCCO2)cc1 has a documented differential viability (reversal) of 4.46

For reference, reported differential viability (reversal) for CC1Cc2cc(/C(O)=C3/C(=O)C(=O)N(CCN4CCOCC4)C3c3cccc(O)c3)ccc2O1 (stereo unspecified) stands at 2.56

differential viability (reversal) reading for COc1ccc(NC(=O)C(C)Oc2ccc(/C(C)=N\O)cc2)cc1 (stereo unspecified) : 7.12

// recorded differential viability (reversal) for CCOc1ccc(OCC)c(NC(=O)CN2CCN(C(=O)c3ccco3)CC2)c1 : 38.1

Measured differential viability (reversal), O=C(Nc1ccc2c(c1)OCCO2)c1ccco1 : 6.8

Quick note, differential viability (reversal) for Fc1cc(F)c(F)c(SCCc2ccncc2)c1F landed at 5

Form field differential viability (reversal), entry NC(=O)C1CCN(CC(=O)N2c3ccccc3CCc3ccccc32)CC1 : 1.55

Entry COc1ccc(Cl)cc1S(=O)(=O)n1cnc2ccccc21 , differential viability (reversal) reported as -49.8

Recorded result, COCCCN1C(=O)C(O)=C(C(=O)c2ccco2)C1c1ccc(Br)cc1 (stereo unspecified) , differential viability (reversal): 10.2

// Cc1ccc(S(=O)(=O)C2(C(=O)NC3CCCC3)CC2)cc1 : differential viability (reversal) value = 9.32

# differential viability (reversal) (compound: CCOC(=O)c1cccc(NC(=O)c2ccco2)c1 ) is 3.72

Value of measured differential viability (reversal) for the entry O=C(Cn1cnc2c(cnn2-c2ccc(F)cc2)c1=O)N1CCCc2ccccc21 : -7.36

Lookup result for O=C(NCc1ccco1)c1cnn2c(C(F)(F)F)cc(-c3ccco3)nc12 ; measured differential viability (reversal): 0.17

compound COc1ccc(S(=O)(=O)N(C)CC(=O)N2CCCCC2)cc1Cl , differential viability (reversal) observed: 6.07

Per the records, this compound ( Cn1c(=O)c2c3c(sc2n2c(SCc4ccccc4)nnc12)CCCC3 ) has differential viability (reversal) equal to 9.04

Sample Fc1ccc(Cn2nnc(-c3ccc(CN4CCOCC4)cc3)n2)cc1 ; differential viability (reversal) observed: 6.81

Value of measured differential viability (reversal) for the entry O=S(=O)(c1ccc(Br)s1)N1CCCCC1 : 2.88

Form field differential viability (reversal), entry COc1ccc(OC)c(C2=NOC(C(=O)Nc3cccnc3)C2)c1 (stereo unspecified) : 5.72

Form: compound = CC(=O)N1CCc2cc(S(=O)(=O)NC(C(=O)NCc3ccccc3)C(C)C)ccc21 (stereo unspecified) ; differential viability (reversal) = 12.1

The recorded differential viability (reversal) for entry Cc1cccc(N=C2NC(=O)CS2)c1C equals 3.6

Kindly note the recorded differential viability (reversal) for COc1ccccc1CN1CC(C(=O)N2CCN(c3ccc(F)cc3)CC2)CC1=O (stereo unspecified) , which is -3.51

differential viability (reversal) recorded for this compound, CCOc1ccc(C2CC(=O)NC3=C2C(=O)CCC3)cc1Cl (stereo unspecified) , is 14.2

# compound CCC(=O)N1CCCc2cc(S(=O)(=O)N3CCCc4ccccc43)ccc21 ; its differential viability (reversal) = -3.92

The compound c1ccc(CCc2nc(-c3cccnc3)no2)cc1 showed differential viability (reversal) equal to 1.11

// recorded differential viability (reversal) for CC(=O)N(c1ccc(N(C(C)=O)S(=O)(=O)c2cccs2)cc1)S(=O)(=O)c1cccs1 : -22.3

Value of measured differential viability (reversal) for the entry Cc1ccc(C)c(S(=O)(=O)NCc2ccc(C(=O)N3CCN(C)CC3)cc2)c1 : 5.15

Lab book: differential viability (reversal) of Nc1nonc1-c1noc(CCCCCN2C(=O)c3ccccc3C2=O)n1 noted as 7.63

get_value(item= O=C(C1CC1)N1CCC(c2nc(-c3ccc(S(=O)(=O)NCC4CCCO4)cc3)no2)CC1 (stereo unspecified) , readout=differential viability (reversal)) returns -9.35

Recorded result, Cc1ccccc1NC(=O)CSc1nc(N)c(C#N)c(-c2cccs2)c1C#N , differential viability (reversal): 3.09

Memo: CCCCOc1cccc(NC(=O)CSc2nccn2C)c1 , reported differential viability (reversal): -1.98

Per the records, this compound ( COc1ccc(CC(=O)OCC(=O)NC(=O)NC2CCCCC2)cc1 ) has differential viability (reversal) equal to -0.595

Form field differential viability (reversal), entry c1ccc(N2CCN(Cc3ccnc4ccccc34)CC2)cc1 : -21.1

The recorded differential viability (reversal) for entry Cc1cc(C)n(-c2ccc(C(=O)Oc3ccc4c(c3)OCO4)cc2)n1 equals 2.71

The measured differential viability (reversal) associated with CCOC(=O)Cn1nc(-c2ccc(C)cc2)ccc1=O reads 15.4

Entry under test: O=C(CSc1nnnn1C1CCCC1)Nc1cccc(NC(=O)c2ccco2)c1 . Its differential viability (reversal) was 13.4

Notebook: O=C(O)CCc1ccc(-c2ccc(F)cc2)n1CC(=O)O , differential viability (reversal) read as 10.8

Briefly, differential viability (reversal) measured for O=C(CCCc1cccs1)Nc1nc2c(s1)CCCC2 : 2.73
